Target: SETD2(1434-1711) (Homo sapiens, UniProt Q9BYW2)
Construct: SETD2 (1434-1711) Assay; catalogue N/A
Sequence (Q9BYW2 1434-1711): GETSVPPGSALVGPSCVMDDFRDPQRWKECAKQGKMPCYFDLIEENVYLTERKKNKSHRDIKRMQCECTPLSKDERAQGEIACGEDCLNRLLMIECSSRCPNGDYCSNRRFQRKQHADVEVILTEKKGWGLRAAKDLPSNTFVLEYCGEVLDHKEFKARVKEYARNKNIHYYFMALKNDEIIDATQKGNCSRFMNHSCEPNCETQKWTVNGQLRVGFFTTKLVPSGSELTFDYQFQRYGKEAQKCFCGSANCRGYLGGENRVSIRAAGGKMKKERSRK
Assay: SETD2 (1434-1711) assay
Format: biochemical
Conditions: read-out: SETD2 (1434-1711)
Entries and their IC50

| COMPOUND | SUBJECT_OF_TEST | IC50 |
| --- | --- | --- |
| Cc1cccc2cc(C(=O)N3CCC(=O)c4ccccc4C3)[nH]c12 | SETD2(1434-1711) (Homo sapiens, UniProt Q9BYW2) | > 200 µM |
| Cc1cccc2cc(C(=O)NC(C)CNC(=O)OC(C)(C)C)[nH]c12 (stereo not drawn) | SETD2(1434-1711) (Homo sapiens, UniProt Q9BYW2) | > 200 µM |
| Cc1ccc(F)c2cc(C(=O)Nc3cc(N4CCN(C)CC4)ccn3)[nH]c12 | SETD2(1434-1711) (Homo sapiens, UniProt Q9BYW2) | > 50 µM |
